Read-out: Interferon-gamma inducible Protein 10 (IP10), CXCL10 (gene 3627)
Test: BSK_KF3CT_IP10: BioMAP Diversity Plus: KF3CT Assay for Interferon-gamma inducible Protein 10 (IP10) Biomarker Activity (AID 2283068)
Conditions: primary human keratinocytes with fibroblasts; actives raise or lower the signal
Calls of active or inactive are those of the source. The calls were made as follows: active = hit-call score of the fitted dose curve at least 0.9, where 1 is the maximum; inactive = score below 0.9.
Outcomes: TRUE = active, FALSE = inactive

molecule	assigned_category
CCCC1COC(Cn2cncn2)(c2ccc(Cl)cc2Cl)O1 (stereo unspecified)	FALSE
CN(C)C(=S)SSC(=S)N(C)C	TRUE
CCNc1nc(Cl)nc(NC(C)C)n1	TRUE
C=CCC1=C(C)[C@@H](OC(=O)[C@@H]2[C@@H](C=C(C)C)C2(C)C)CC1=O	FALSE
CC1=C(C(=O)Nc2ccccc2)SCCO1	FALSE
CC(C)Oc1cc(-n2nc(C(C)(C)C)oc2=O)c(Cl)cc1Cl	TRUE
CC(Oc1ccc(Cl)cc1Cl)C(=O)O (stereo unspecified)	FALSE
O=C(O)COc1nc(Cl)c(Cl)cc1Cl	FALSE
COC(=O)c1ccccc1C(=O)OC	FALSE
Cc1c(F)c(F)c(COC(=O)C2C(/C=C(\Cl)C(F)(F)F)C2(C)C)c(F)c1F (stereo unspecified)	FALSE
COC(=O)C=C(C)OP(=O)(OC)OC	FALSE
CCOC(=O)C(Cl)Cc1cc(-n2nc(C)n(C(F)F)c2=O)c(F)cc1Cl (stereo unspecified)	FALSE
CC(C)(C)c1ccc(CSc2cnn(C(C)(C)C)c(=O)c2Cl)cc1	TRUE
CCON=C(CC)C1=C(O)CC(c2c(C)cc(C)cc2C)CC1=O (stereo unspecified)	FALSE
CCOP(=S)(OCC)SCn1c(=O)oc2cc(Cl)ccc21	FALSE
CCOC(=O)CC(SP(=S)(OC)OC)C(=O)OCC (stereo unspecified)	FALSE
CCCN(CCC)c1c([N+](=O)[O-])cc(S(N)(=O)=O)cc1[N+](=O)[O-]	FALSE
CCCCC(CC)COC(=O)c1ccccc1C(=O)OCC(CC)CCCC (stereo unspecified)	TRUE
N#Cc1nn(-c2c(Cl)cc(C(F)(F)F)cc2Cl)c(N)c1S(=O)C(F)(F)F (stereo unspecified)	TRUE
Cc1ccc(-c2c(Cl)nc(C#N)n2S(=O)(=O)N(C)C)cc1	FALSE
C#CCOS(=O)OC1CCCCC1Oc1ccc(C(C)(C)C)cc1 (stereo unspecified)	TRUE
Cc1cc(Cl)ccc1OCC(=O)O	FALSE
CCCCOC(=O)c1ccccc1C(=O)OCCCC	FALSE
N#Cc1cc(Br)c(O)c(Br)c1	FALSE
O=C(Nc1ccccc1)Nc1ccnc(Cl)c1	FALSE
CCNc1nc(Cl)nc(NCC)n1	FALSE

---

Assay: APR_HepG2_MicrotubuleCSK_24hr: Apredica 24-hour HepG2 Assay for Microtubule CSK Stabilty (AID 2282909)
Conditions: HepG2 microtubule cytoskeleton imaging, actives raise or lower the signal
Active and inactive are the calls of the source. How the source made its calls: active means hit-call score of the fitted dose curve at least 0.9, where 1 is the maximum; inactive means score below 0.9.

compound	AC50
C=CC1(C)OC(=O)N(c2cc(Cl)cc(Cl)c2)C1=O (configuration not stated)	inactive
COc1cnc(OC)n2nc(NS(=O)(=O)c3c(OCC(F)F)cccc3C(F)(F)F)nc12	inactive
CC(C)Oc1cc(-n2nc(C(C)(C)C)oc2=O)c(Cl)cc1Cl	46.4 µM (active)
CN(C)C(=S)SSC(=S)N(C)C	17.6 µM (active)
C=CCC1=C(C)[C@@H](OC(=O)[C@@H]2[C@@H](C=C(C)C)C2(C)C)CC1=O	55.9 µM (active)
Cc1c(F)c(F)c(COC(=O)C2C(/C=C(\Cl)C(F)(F)F)C2(C)C)c(F)c1F (configuration not stated)	inactive
Cc1ccc(-c2c(Cl)nc(C#N)n2S(=O)(=O)N(C)C)cc1	inactive
CCOP(=S)(OCC)SCn1c(=O)oc2cc(Cl)ccc21	inactive
COP(N)(=O)SC (configuration not stated)	inactive
N#CC(CCc1ccc(Cl)cc1)(Cn1cncn1)c1ccccc1 (configuration not stated)	104 µM (active)
COC(=O)C(C)Oc1ccc(Oc2ccc(Cl)cc2Cl)cc1 (configuration not stated)	inactive
CCNc1nc(Cl)nc(NC(C)C)n1	inactive

---

Test system: frog Estrogen Receptor (ESR1), gene 398734
Assay: ATG_frER1_XSP1: Attagene TRANS-FACTORIAL Multi-Species (XSP1) HepG2 Assay for frog Estrogen Receptor (ESR1) (AID 2283777)
Records with an inconclusive call do not appear. Calls of active or inactive are those of the source. How the source made its calls: active means hit-call score of the fitted dose curve at least 0.9, where 1 is the maximum; inconclusive means response in the unintended direction; inactive means score below 0.9.
Outcomes: yes (1) = active, no (0) = inactive

compound	target_entity	assigned_category
COc1ccc(C(c2ccc(OC)cc2)C(Cl)(Cl)Cl)cc1	frog Estrogen Receptor (ESR1), gene 398734	yes (1)
CCCN(CCC)c1c([N+](=O)[O-])cc(S(N)(=O)=O)cc1[N+](=O)[O-]	frog Estrogen Receptor (ESR1), gene 398734	yes (1)
COC(=O)N(OC)c1ccccc1COc1ccn(-c2ccc(Cl)cc2)n1	frog Estrogen Receptor (ESR1), gene 398734	no (0)
CC(C)(C)c1ccc(CSc2cnn(C(C)(C)C)c(=O)c2Cl)cc1	frog Estrogen Receptor (ESR1), gene 398734	no (0)
CCCCC(CC)COC(=O)c1ccccc1C(=O)OCC(CC)CCCC (stereo not given)	frog Estrogen Receptor (ESR1), gene 398734	no (0)

---

Molecular target: Retinoic acid receptor RXR-alpha (Homo sapiens)
Assay: OT_NURR1_NURR1RXRa_0480: Odyssey Thera (OT) 8-hour HEK293T Protein Complementation Assay for Nurr1/retinoid X receptor (RXR) (AID 2283385)
Records with an inconclusive call do not appear. Activity calls are given as the source filed them. Rule for the calls: active = hit-call score of the fitted dose curve at least 0.9, where 1 is the maximum; inconclusive = response in the unintended direction; inactive = score below 0.9.
Possible outcomes: yes (1) for active, no (0) for inactive

compound	assigned_category
CCCCNC(=O)OCC#CI	yes (1)
COC(=O)N(OC)c1ccccc1COc1ccn(-c2ccc(Cl)cc2)n1	no (0)
CCOP(=S)(OCC)SCn1c(=O)oc2cc(Cl)ccc21	no (0)
CCCCC(CC)COC(=O)c1ccccc1C(=O)OCC(CC)CCCC (stereo not given)	no (0)
CCON=C(CC)C1=C(O)CC(c2c(C)cc(C)cc2C)CC1=O (stereo not given)	no (0)
C=CC1(C)OC(=O)N(c2cc(Cl)cc(Cl)c2)C1=O (stereo not given)	no (0)
COP(=S)(OC)Oc1nc(Cl)c(Cl)cc1Cl	no (0)
CNC(=O)ON=CC(C)(C)SC	no (0)
N#Cc1nn(-c2c(Cl)cc(C(F)(F)F)cc2Cl)c(N)c1S(=O)C(F)(F)F (stereo not given)	no (0)
CC(Oc1ccc(Cl)cc1Cl)C(=O)O (stereo not given)	no (0)
CO/C=C(/C(=O)OC)c1ccccc1Oc1cc(Oc2ccccc2C#N)ncn1	no (0)
Cc1cc(Cl)ccc1OCC(=O)O	no (0)
CC(C)(C)c1ccc(CSc2cnn(C(C)(C)C)c(=O)c2Cl)cc1	no (0)
O=C(O)c1nc(Cl)ccc1Cl	no (0)
COP(N)(=O)SC (stereo not given)	no (0)

---

Read-out: Nuclear factor erythroid 2-related factor 2 (Homo sapiens) (UniProt Q16236)
Sequence (Q16236 whole entry, looked up): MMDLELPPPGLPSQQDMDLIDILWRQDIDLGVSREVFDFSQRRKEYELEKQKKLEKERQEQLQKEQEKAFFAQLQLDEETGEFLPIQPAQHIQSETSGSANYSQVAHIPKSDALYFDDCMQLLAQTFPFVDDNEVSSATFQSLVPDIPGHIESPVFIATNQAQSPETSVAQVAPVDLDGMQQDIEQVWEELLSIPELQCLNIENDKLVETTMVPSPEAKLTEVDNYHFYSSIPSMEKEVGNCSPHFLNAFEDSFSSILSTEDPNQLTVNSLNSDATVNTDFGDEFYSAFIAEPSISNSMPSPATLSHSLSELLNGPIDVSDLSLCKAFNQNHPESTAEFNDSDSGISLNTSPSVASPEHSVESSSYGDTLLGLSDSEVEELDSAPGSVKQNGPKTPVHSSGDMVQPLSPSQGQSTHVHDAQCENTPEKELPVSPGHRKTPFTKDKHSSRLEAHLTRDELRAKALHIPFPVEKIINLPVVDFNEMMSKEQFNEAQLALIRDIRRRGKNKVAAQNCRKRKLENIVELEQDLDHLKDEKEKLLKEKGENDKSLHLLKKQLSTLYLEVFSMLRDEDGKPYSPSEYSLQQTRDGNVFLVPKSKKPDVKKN
Experiment: LTEA_HepaRG_NFE2L2: Life Technologies and Expression Analysis (LTEA) Assay for Nuclear factor erythroid 2-related factor 2 (NFE2L2) Transcription Factor using HepaRG (AID 2283527)
Details: mRNA level, 48 h; actives raise or lower the signal
Description: LTEA_HepaRG is a cell based, multiplexed-readout assay that uses HepaRG, a human liver cell line, with measurements taken at 48 hours after chemical dosing on a 96-well plate.LTEA_HepaRG_NFE2L2 is one of 102 assay component(s) measured in the LTEA HepaRG cell culture assay. It is a marker of Inflammation/injury.Data from the assay component LTEA_HepaRG_NFE2L2 was analyzed into 1 endpoint. […]
Calls of active or inactive are those of the source. Rule for the calls: active = hit-call score of the fitted dose curve at least 0.9, where 1 is the maximum; inactive = score below 0.9.
Classes used: label 1 for active, label 0 for inactive

molecule	assigned_category
CCc1nn(C)c(C(=O)NCc2ccc(C(C)(C)C)cc2)c1Cl	label 1
Cc1ccc(-c2c(Cl)nc(C#N)n2S(=O)(=O)N(C)C)cc1	label 0
CON(C)C(=O)Nc1ccc(Cl)c(Cl)c1	label 1
N#Cc1cc(Br)c(O)c(Br)c1	label 1
CC1COC(Cn2cncn2)(c2ccc(Oc3ccc(Cl)cc3)cc2Cl)O1 (stereo not given)	label 1
OC(c1ccc(Cl)cc1)(c1cncnc1)c1ccccc1Cl (stereo not given)	label 1
COC(=O)c1ccccc1C(=O)OC	label 0
COC(=O)N(OC)c1ccccc1COc1ccn(-c2ccc(Cl)cc2)n1	label 1
Fc1ccc(Oc2ccnc3cc(Cl)cc(Cl)c23)cc1	label 0
CCCCOC(=O)c1ccccc1C(=O)OCCCC	label 0

---

Assay: CCTE_Mundy_HCI_hN2_NOG_NeuriteCount: CCTE's Neurite Outgrowth Assay in human hN2 cells for Neurite Count, Mundy Lab (AID 2284219)
Records with an inconclusive call do not appear. Activity calls are given as the source filed them. How the source made its calls: active means hit-call score of the fitted dose curve at least 0.9, where 1 is the maximum; inconclusive means response in the unintended direction; inactive means score below 0.9.
Outcome codes: label 1 (active), label 0 (inactive)

compound	assigned_category
CNC(=O)ON=CC(C)(C)SC	label 0
CCOC(=O)CC(SP(=S)(OC)OC)C(=O)OCC (centres undefined)	label 1
COP(N)(=O)SC (centres undefined)	label 0
CCCCC(CC)COC(=O)c1ccccc1C(=O)OCC(CC)CCCC (centres undefined)	label 0
